assay.notes: protease stability score; higher = more stable; yeast display proteolysis, trypsin and chymotrypsin;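 note: relative to predicted unfolded state with 0 unfolded-like and 1 meaning tenfold more protease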
Please mark Y if the recorded protease stability score is equal to or greater than 1, and N if it falls below.

Determine whether measured protease stability score meets or exceeds 1 for SEEEEEMRFFMEVWIHDLRTGDFESLHKNADPRTRVEINGVELHGREHFTEWAERIKGAKFEVKDFKIQGDKVILHGKFSVNGVEHEMTVIFLKVNGRWLQESMTLK
N

Reported protease stability score reaches at least 1 for DEETEEIELAFHFFQHAYETGNEEVLMELADPDVKIDVNGRKLHGRERVWKFLIHHWHHLGIKHIHMDRIEIYGNKVVVDGEIKYGDKSDETIMYVVKVDGRWKLEMIEVK ?
Y

Textbook exercise: given the entry SEEEEYAREFLERHLHSLKTGDWREEHKQADPEVRLHIGDKEFHGREIFVKIQREILEQADHLRIHIRRVHVQGDFLHIDGELRIRINGREHYIDRKVIVWKFNGRWHLHEVSIE , state whether its protease stability score is greater than or equal to 1.
Y

Is the recorded value of protease stability score equal to or greater than 1 for this sequence? SEEDKLMRDIERLVLEWLETGDEDALKKMLDPHVRVEFNGVERIGMDELARLLKHLRFDHIHIRNSRVINGVIHIDGHIDGTINGRRVRHDLEVRIIIVNGRFKEIILIDR
Y

Does protease stability score meet or surpass 1 for HEDEEHALKLTMDFLRWIYTGDEDTLNKYADPNVRLDIGDKVFHGMEFINKHMKELRFHRIHVKRFEAHVVDGKLRSHMDVRIDGNVDGRRRETDVELIFFWEKIDGRWVNTSIIIHHH ?
Y

Textbook exercise: given the entry DELHRDVTEAIKLILHAERTGNWRLMMDLMDPHVKLTIGDKEVHGMEAVFNELRTELEELGLDRFESHVRLRDFRIYDGRVDFHVELIFDFNGREIRHDTRFIVEKVDGRWFIKHIQYG , state whether its protease stability score is greater than or equal to 1.
Y

Has DEEKRHSDEIIEEWVRSLITGDEKRIRELHDPTTLLNNENEKYHGMEIATELRRRIRENMGIKHSEVRVHDIEWQGDKITIYGRLILRFNGKEVEHELLIVATKINGRWVLRSMRIE a recorded protease stability score greater than or equal to 1?
Y

Reported protease stability score reaches at least 1 for SEEEEQVKELIKWLIEVWLTGNEEFIRDLADPHVRMHIEQGDKKVDSHGRETLLKDLERYRREIRFEYIEIHDIRIYNGRAEVDGRLFGLINGQRMELNVILIFVVVDGKIREIAVHIR ?
N

Kindly determine if protease stability score recorded for DERKEHSIKVAKNIFNDILTGDEDRMKEMMDPDVKLHIGDKDVIGRENVIKFMIEEWNHIRFEDFKHKDVRVQGDKAILEGHINVEYGDKHRNVDSRYLVFVIDGRIKSIEIRLH is above or exactly 1.
Y

Textbook exercise: given the entry DEDERNHEEIWELFLRVVMTGDWNLHKEMLDPHVRIDIDGVHIHGREEAVKHIRHLRVELNHFHIEDVKIVNGRARIQTHEEVTIRIDGVRIETRRSTELIMIKVDGRWLLHHEIVR , state whether its protease stability score is greater than or equal to 1.
N

hey, is protease stability score for this one >= 1? SEENELAERFFKELRDHFETGDEDVLDEMADPNMKLHINGRNFHGMHVYSKLARWLVDHWRSEFKVRRIEVQGNKIIIDSQLTLHIDGQRIIHDTRMESEKVNGKWLLRQFIVV
Y

Quick check: does SESHHLAKHVVHLFMHAVSTGDEKLLRELLDPDVRVDINGVELIGMEDFQKWLHEWREHMHDSKVHRVRDYNGVLESDVKVRRVLIVDGVRLEEETHSEVIIVKINGRWHVKHVRYR have protease stability score greater than or equal to 1?
Y

Reported protease stability score reaches at least 1 for EEEDEWSREAVEFFKRMVETGDEDLQETLADPNARLIQGDKDEHGRHVLSEWMHRMGVDHIRFHHIDVQGDKVRLDFTMRVNGRQIHVKINNMKVNGQWRIKSVHLR ?
N

Would you say DKEKEDLKKLSDWWLHAIETGDFETIFRLLDPHVRIEINIGDKTHSIHGREEFYKWLHRVKNLQMTIHHSEPIGDKIRLHGFFVIDGVHHDTRHELYFIDGRLHEVHIHVI shows protease stability score at minimum 1?
Y

Tell me whether protease stability score is at least 1 here: SEEEHIVKEAVRLWYEAVHTGDPHTLNEFLDPHMRIEIGDKEKHGRHELKKLTEHIRIERLEFTLTHMKIVGNKAHVYGHLRFEGDWDGQRIHTEVETRLHIIKYDGKWMTEEVHIR
Y

Has DEHTHEAHKFLREYWSNLQTGDEEKIINLVDPRVRMIINGKELHGREEFSKALHDEYRRMGMTIQTFTLQHLEIQGEKVHADVEIITHYDGRHTSIHLHLIVQKINGRWLMREVEIR a recorded protease stability score greater than or equal to 1?
Y

Given the entry SEDEELAQTFLELWVHFLRTGDESMLEQYIDPHARFKVGDKEDHGMKVFKDLLHHIRIEDFRVHHVEIRIVGEWIEIRMDITLHGRVDGVRDTKRVHVHINAEKYNGRWRIKELEIRHR , answer whether its protease stability score meets or surpasses 1.
Y

Textbook exercise: given the entry SEDKEEAEEFVRIFNEALITGDFEFIEHLADPNVKYRQGEYHEHGRESLSHMFRFLGWSNVKIHLRHIKFYGDKIEVHGEVRIDGRTHWVNSYITKYDGRWYLTSLQIE , state whether its protease stability score is greater than or equal to 1.
Y

Decide: is the reported value of protease stability score for SEEEKEAEEAMKRSLRSLETGDEELLDEMADPDVRLHVGEFQLIGRESFRKHQRRLTKRFKNMRFHIHRMEVYGEKLSIFGRFHWDGVDTETEIIEVKINGRWFLREVHIR equal to or greater than 1?
N

Could you tell me if the measured protease stability score of SELEHVEEKLLRDLVNAIKTGDEEFFNRLLDPDDRLHEKQGDKTIDFIGREEWKRFLSQIKNLKVEFRDVDLWNGRIHMRVVIIINGREHDLELEYVIVNGRFKQFHVRIR reaches 1 or more?
Y

Test whether the sequence DEDHKIIEKLFRHWLELLLTGDEEEIEKQMDPHARIIINGRHTHGRDDIRRLLEEIRIRHLDIERLEIRIYGNKAVALSETRVEVRIGDKEFHVDYRIILIIEKVDGRWVKRSLELIVV records protease stability score of 1 or higher.
Y
